Form field: inhibition at 30 µg/mL (one value per entry).
# TESTED_TARGET: fatty acid cyclooxygenase (Homo sapiens, UniProt P23219)
# Construct: Microsomes were prepared from 185 bags of human platelets; from tissue; host or cells: human platelets (solubilized microsomes, then electrofocusing and Sephadex G-200)
# Sequence (P23219 24-599): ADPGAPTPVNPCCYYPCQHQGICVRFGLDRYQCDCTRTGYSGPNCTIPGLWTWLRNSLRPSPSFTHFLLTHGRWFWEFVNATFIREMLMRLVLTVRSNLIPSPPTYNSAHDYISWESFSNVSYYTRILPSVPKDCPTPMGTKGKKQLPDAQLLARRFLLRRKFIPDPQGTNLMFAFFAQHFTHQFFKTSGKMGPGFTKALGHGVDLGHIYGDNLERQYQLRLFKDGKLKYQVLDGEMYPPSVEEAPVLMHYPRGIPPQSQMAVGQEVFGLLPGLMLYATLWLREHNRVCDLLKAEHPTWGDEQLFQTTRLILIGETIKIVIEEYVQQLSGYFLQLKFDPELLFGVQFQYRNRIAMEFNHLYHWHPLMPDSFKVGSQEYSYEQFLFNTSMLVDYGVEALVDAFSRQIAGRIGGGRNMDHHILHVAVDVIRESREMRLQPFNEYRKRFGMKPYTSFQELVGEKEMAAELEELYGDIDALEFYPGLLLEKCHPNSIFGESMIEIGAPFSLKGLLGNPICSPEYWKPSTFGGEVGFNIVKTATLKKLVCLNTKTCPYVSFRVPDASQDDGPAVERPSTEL
# TEST: Fatty Acid Cyclooxygenase (FCO) Assay
# Format: biochemical
# EXPERIMENTAL_SETUP: 30 µg/ml test compound; inhibition of formation of PGE2; enzyme from human platelets
Reply numerically in %, unit not repeated.

Consider the following illustrative entries.
MOLECULE | inhibition at 30 µg/mL [%]
CC(C)=CCCC(C)=CCCC(C=O)=CCCC1=CC(=O)OC1O (centres unmarked) [Example 15] | 32
CC(C)=CCCC(C)=CCCC(=CCCC1=CC(=O)OC1O)CO (centres unmarked) [Example 19] | 14
C=CCCCCCCCC1=CC(=O)OC1O (centres unmarked) [Example 7, 5-Hydroxy-4-(8-nonenyl)-2(5H)-furanone] | 23
CCCCC/C=C\C/C=C\CCCCCCC1=CC(=O)OC1O (centres unmarked) [Example 1] | 77
CC(C)=CCCC(C)=CCCC(C)=CCCC1=CC(=O)OC1O (centres unmarked) [Example 13] | 47
CCCCCCCC/C=C/CCCCCCC1=CC(=O)OC1O (centres unmarked) [Example 4] | 52
CCCCC/C=C\C/C=C\C/C=C\CCCC1=CC(=O)OC1O (centres unmarked) [Example 5] | 75

Then this molecule:
Request: For CC/C=C\C/C=C\C/C=C\C/C=C\C/C=C\C/C=C\CC1=CC(=O)OC1O (centres unmarked) [Example 9] , write its inhibition at 30 µg/mL.
Response: 46

----------
# TESTED_TARGET: Pancreatic phospholipase A2 (Homo sapiens, UniProt P04054)
# Sequence (P04054 23-148): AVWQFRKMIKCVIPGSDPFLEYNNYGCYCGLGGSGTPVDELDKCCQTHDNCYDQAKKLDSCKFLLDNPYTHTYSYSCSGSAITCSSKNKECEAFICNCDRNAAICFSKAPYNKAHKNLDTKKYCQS
# TEST: Phospholipase A2 (PLA2) Assay
# Type: biochemical
# EXPERIMENTAL_SETUP: 30 µg/ml test compound; inhibition of 14C-free fatty acid formation
Kindly return TRUE if reported inhibition at 30 µg/mL is no lower than 50%; return FALSE if it is lower.

Request: Would you say O=C1C=C(CCCCCOc2ccccc2Cc2ccccc2)C(O)O1 (centres unmarked) shows inhibition at 30 µg/mL at minimum 50%?
Response: FALSE

----------
# TESTED_TARGET: 5-Lipoxygenase (Cavia porcellus)
# Construct: The PMNL suspension was disrupted by five ½-second pulse sonication; from tissue; host or cells: guinea pig peritoneal polymorphonuclear leukocytes (30,000 x g supernatant of the sonicate)
# TEST: 5-Lipoxygenase (5-LPO) Assay
# Assay type: biochemical, guinea pigs
# EXPERIMENTAL_SETUP: inhibition of 5-HETE formation; supernatant of guinea pig PMNL sonicate; read-out: 5-LPO IC50 (µg/ml) (converted)
Form field: IC50 (one value per entry).
Reply numerically in µM, unit not repeated.

Consider the following illustrative entries.
COMPOUND | READOUT_UNITS | ENDPOINT_RESULT
O=C1C=C(CCCCCOc2ccc3ccccc3c2)C(O)O1 (stereo not drawn) [Example 16] | µM | 9.6
CC(C)=CCCC(C)=CCCC(C=O)=CCCC1=CC(=O)OC1O (stereo not drawn) [Example 15] | µM | 0.241

Then this compound:
Request: For CCCC/C=C\CCCCCCCCCCC1=CC(=O)OC1O (stereo not drawn) [Example 21] , write its IC50.
Response: 93

----------
Form field: IC50 (one value per entry).
# TESTED_TARGET: 5-Lipoxygenase (Cavia porcellus, UniProt A0A286X958)
# Construct: The PMNL suspension was disrupted by five ½-second pulse sonication; from tissue; host or cells: guinea pig peritoneal polymorphonuclear leukocytes (30,000 x g supernatant of the sonicate)
# Sequence (A0A286X958 1-674): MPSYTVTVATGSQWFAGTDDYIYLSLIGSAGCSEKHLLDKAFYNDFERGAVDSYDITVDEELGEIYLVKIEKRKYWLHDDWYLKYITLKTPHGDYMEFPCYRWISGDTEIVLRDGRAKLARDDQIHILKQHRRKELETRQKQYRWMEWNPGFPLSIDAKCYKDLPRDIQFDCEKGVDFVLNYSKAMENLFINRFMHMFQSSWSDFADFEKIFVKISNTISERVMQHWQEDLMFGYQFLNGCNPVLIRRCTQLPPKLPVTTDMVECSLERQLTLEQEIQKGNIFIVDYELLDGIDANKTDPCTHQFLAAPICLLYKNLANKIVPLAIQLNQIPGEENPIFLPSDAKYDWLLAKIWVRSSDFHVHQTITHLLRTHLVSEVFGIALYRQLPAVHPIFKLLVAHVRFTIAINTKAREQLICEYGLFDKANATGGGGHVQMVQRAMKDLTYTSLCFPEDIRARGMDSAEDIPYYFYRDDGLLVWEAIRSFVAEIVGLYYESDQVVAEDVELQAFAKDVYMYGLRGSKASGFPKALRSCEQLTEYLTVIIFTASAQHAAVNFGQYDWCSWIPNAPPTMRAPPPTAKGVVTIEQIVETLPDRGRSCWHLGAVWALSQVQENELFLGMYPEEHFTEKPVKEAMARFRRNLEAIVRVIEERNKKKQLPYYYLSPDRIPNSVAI
# TEST: 5-Lipoxygenase (5-LPO) Assay
# Format: biochemical, guinea pigs
# EXPERIMENTAL_SETUP: inhibition of 5-HETE formation; supernatant of guinea pig PMNL sonicate; read-out: 5-LPO IC50 (µg/ml) (converted)

Consider the following illustrative entries.
MOLECULE | IC50
CC/C=C\C/C=C\C/C=C\CCCCCCC1=CC(=O)OC1O (stereo not shown) [Example 2] | 0.471 to 1.88 µM
O=C1C=C(CCCCOc2ccccc2Cc2ccccc2)C(O)O1 (stereo not shown) [Example 17] | 8.87 µM
CCCCC/C=C\C/C=C\CCCCCCC1=CC(=O)OC1O (stereo not shown) [Example 1] | 1.25 to 3.12 µM
CCCCCCCC/C=C\CCCCCCC1=CC(=O)OC1O (stereo not shown) [Example 11] | 1.24 µM

Request: For CC(C)=CCCC(C)=CCCC(=CCCC1=CC(=O)OC1O)CO (stereo not shown) [Example 19] , write its IC50.
Response: 4.48 µM

Request: For O=C1C=C(CCCCOc2ccc3ccccc3c2)C(O)O1 (stereo not shown) [Example 12] , write its IC50.
Response: 16.8 to 40.2 µM

Request: For CCCCC/C=C\C/C=C\C/C=C\C/C=C\CCC1=CC(=O)OC1O (stereo not shown) [Example 3] , write its IC50.
Response: 0.435 to 1.16 µM

Request: For O=C1C=C(CCCCCOc2ccccc2Cc2ccccc2)C(O)O1 (stereo not shown) [Example 18] , write its IC50.
Response: 28.4 µM

Request: For CC(C)=CCC/C(C)=C/CCC1=CC(=O)OC1O (stereo not shown) [Example 14] , write its IC50.
Response: 24 µM

Request: For CC(C)=CCCC(C)=CCCC(C)=CCCC1=CC(=O)OC1O (stereo not shown) [Example 13] , write its IC50.
Response: 25.1 µM

----------
# TESTED_TARGET: fatty acid cyclooxygenase (Homo sapiens)
# Construct: Microsomes were prepared from 185 bags of human platelets; from tissue; host or cells: human platelets (solubilized microsomes, then electrofocusing and Sephadex G-200)
# TEST: Fatty Acid Cyclooxygenase (FCO) Assay
# Assay type: biochemical
# EXPERIMENTAL_SETUP: 30 µg/ml test compound; inhibition of formation of PGE2; enzyme from human platelets
Form field: inhibition at 30 µg/mL (one value per entry).
Reply numerically in %, unit not repeated.

Consider the following illustrative entries.
MOLECULE | inhibition at 30 µg/mL / %
O=C1C=C(CCCCCOc2ccc3ccccc3c2)C(O)O1 (stereo not shown) [Example 16] | 27
CCCCCCCC/C=C\CCCCCCC1=CC(=O)OC1O (stereo not shown) [Example 11] | 61
O=C1C=C(CCCCCOc2ccccc2Cc2ccccc2)C(O)O1 (stereo not shown) [Example 18] | 20
CCCCC/C=C\C/C=C\C/C=C\C/C=C\CCC1=CC(=O)OC1O (stereo not shown) [Example 3] | 67
CCCCCC/C=C\CCCCCCCCC1=CC(=O)OC1O (stereo not shown) [Example 8] | 21

Request: For CCCCCCCC/C=C\CCCCCCCCCCC1=CC(=O)OC1O (stereo not shown) [Example 10] , write its inhibition at 30 µg/mL.
Response: 25

Request: For CC/C=C\C/C=C\C/C=C\CCCCCCC1=CC(=O)OC1O (stereo not shown) [Example 2] , write its inhibition at 30 µg/mL.
Response: 75

Request: For O=C1C=C(CCCCOc2ccccc2Cc2ccccc2)C(O)O1 (stereo not shown) [Example 17] , write its inhibition at 30 µg/mL.
Response: 12

Request: For O=C1C=C(CCCCOc2ccc3ccccc3c2)C(O)O1 (stereo not shown) [Example 12] , write its inhibition at 30 µg/mL.
Response: 16

----------
# TESTED_TARGET: Pancreatic phospholipase A2 (Homo sapiens, UniProt P04054)
# TEST: Phospholipase A2 (PLA2) Assay
# Type: biochemical
# EXPERIMENTAL_SETUP: 30 µg/ml test compound; inhibition of 14C-free fatty acid formation
Form field: inhibition at 30 µg/mL (one value per entry).
Reply numerically in %, unit not repeated.

Consider the following illustrative entries.
MOLECULE | inhibition at 30 µg/mL, %
CC(C)=CCCC(C)=CCCC(=CCCC1=CC(=O)OC1O)CO (stereo not shown) [Example 19] | 76
CCCCCCCC/C=C/CCCCCCC1=CC(=O)OC1O (stereo not shown) [Example 4] | 0

Request: Retrieve inhibition at 30 µg/mL on Pancreatic phospholipase A2 (Homo sapiens, UniProt P04054); query CC(C)=CCCC(C)=CCCC(C=O)=CCCC1=CC(=O)OC1O (stereo not shown) [Example 15]
Response: 88

Request: Retrieve inhibition at 30 µg/mL on Pancreatic phospholipase A2 (Homo sapiens, UniProt P04054); query CC/C=C\C/C=C\C/C=C\C/C=C\C/C=C\C/C=C\CC1=CC(=O)OC1O (stereo not shown) [Example 9]
Response: 0

Request: Retrieve inhibition at 30 µg/mL on Pancreatic phospholipase A2 (Homo sapiens, UniProt P04054); query CCCCC/C=C\C/C=C\CCCCCCC1=CC(=O)OC1O (stereo not shown) [Example 1]
Response: 77

Request: Retrieve inhibition at 30 µg/mL on Pancreatic phospholipase A2 (Homo sapiens, UniProt P04054); query CC(C)=CCC/C(C)=C/CCC1=CC(=O)OC1O (stereo not shown) [Example 14]
Response: 72

Request: Retrieve inhibition at 30 µg/mL on Pancreatic phospholipase A2 (Homo sapiens, UniProt P04054); query CCCCC/C=C\C/C=C\C/C=C\CCCC1=CC(=O)OC1O (stereo not shown) [Example 5]
Response: 77

Request: Retrieve inhibition at 30 µg/mL on Pancreatic phospholipase A2 (Homo sapiens, UniProt P04054); query C=CCCCCCCCC1=CC(=O)OC1O (stereo not shown) [Example 7, 5-Hydroxy-4-(8-nonenyl)-2(5H)-furanone]
Response: 0

Request: Retrieve inhibition at 30 µg/mL on Pancreatic phospholipase A2 (Homo sapiens, UniProt P04054); query CCCCCC/C=C\CCCCCCCCC1=CC(=O)OC1O (stereo not shown) [Example 8]
Response: 36

Request: Retrieve inhibition at 30 µg/mL on Pancreatic phospholipase A2 (Homo sapiens, UniProt P04054); query O=C1C=C(CCCCOc2ccc3ccccc3c2)C(O)O1 (stereo not shown) [Example 12]
Response: 72

Request: Retrieve inhibition at 30 µg/mL on Pancreatic phospholipase A2 (Homo sapiens, UniProt P04054); query CCCCCCCC/C=C\CCCCCCC1=CC(=O)OC1O (stereo not shown) [Example 11]
Response: 51
